Numbers sourced from patent US5071864A.

Biological target: D2 -receptor (Rattus norvegicus, UniProt P61169)
Sequence (P61169 whole entry): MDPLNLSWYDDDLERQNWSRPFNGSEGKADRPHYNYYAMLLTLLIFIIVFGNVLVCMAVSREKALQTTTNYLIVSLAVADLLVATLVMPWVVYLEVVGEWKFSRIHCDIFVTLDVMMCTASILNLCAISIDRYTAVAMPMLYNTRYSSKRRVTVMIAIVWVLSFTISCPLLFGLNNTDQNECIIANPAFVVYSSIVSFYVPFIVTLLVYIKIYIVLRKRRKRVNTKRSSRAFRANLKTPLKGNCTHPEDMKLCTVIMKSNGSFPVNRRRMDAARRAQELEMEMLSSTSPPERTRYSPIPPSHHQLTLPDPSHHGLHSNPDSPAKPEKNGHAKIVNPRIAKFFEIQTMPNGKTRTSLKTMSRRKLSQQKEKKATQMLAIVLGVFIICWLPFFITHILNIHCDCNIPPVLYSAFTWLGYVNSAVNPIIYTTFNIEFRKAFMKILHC
Experiment: Receptor binding test (3H-ADTN, rat striatal membranes)
Set-up: species or system rats (Sprague Dawley)
Where a name gives a salt, the structure may show the parent alone.
Measurement kind: Ki (nM)
Numbers only; they are read as nM.

COc1ccc(-c2nc(N)sc2CCN2CC=C(c3ccccc3)CC2)cc1 :: 16
Nc1nc(-c2cccs2)c(CCN2CC=C(c3ccccc3)CC2)s1 [Example 5, dihydrochloride] :: 10
Cc1nc(N)sc1CCCN1CC=C(c2ccccc2)CC1 :: 10
Nc1nc(-c2ccccc2)c(CCN2CC=C(c3ccccc3)CC2)s1 [Example 8, tartrate] :: 10

Prompt line: Endpoint output: Ki of Cc1nc(Nc2ccccc2)sc1CCCN1CC=C(c2ccccc2)CC1 [Example 3, dihydrochloride] . Value?
Response line: 4

----------
Molecular target: D2 -receptor (Rattus norvegicus)
Experiment: Receptor binding test (3H-ADTN, rat striatal membranes)
Parameters: species or system rats (Sprague Dawley)
Conditions: displacement of 1 nM 3H-ADTN, rat striatum membranes, 0.1 μM SCH 23390, 40 min at 25° C.; read-out: Ki
Structures can show the parent of a compound that is named as a salt.
Measurement kind: Ki (nM)
Express your answer in nM, writing the number without its unit.

Nc1nc(-c2ccccc2)c(CCCN2CCN(c3ccccc3Cl)CC2)s1 [Example 18, tartrate] :: 25
Cc1nc(N)sc1CCCN(C)CCc1ccccc1 [Example 2, fumarate] :: 20
Nc1nc(-c2ccccc2)c(CCCN2CCN(c3ccccn3)CC2)s1 :: 15

Prompt line: Reported Ki for Nc1nc(-c2ccccc2)c(CCCN2CCN(c3ncccn3)CC2)s1 [Example 13, tartrate] : what is it?
Response line: 10

Prompt line: I'd like to know its Ki. The molecule in question is CCCN(CCCCc1sc(N)nc1C)CCc1ccccc1 [Example 25, dihydrochloride]
Response line: 4

----------
Target: D2 -receptor (Rattus norvegicus)
Assay: Receptor binding test (3H-ADTN, rat striatal membranes)
Set-up: species or system rats (Sprague Dawley)
Details: displacement of 1 nM 3H-ADTN, rat striatum membranes, 0.1 μM SCH 23390, 40 min at 25° C.; read-out: Ki
Counter-ions that a name gives are not always drawn.
Measurement kind: Ki
Show the value, then the unit it is measured in.

Worked cases, answers included:
Nc1nc(-c2ccccc2)c(CCCN2CCN(c3ccccc3)CC2)s1 [Example 9, trihydrochloride] :: 14 nM
CCCN(CCCc1sc(N)nc1-c1ccccc1)CCc1ccccc1 [Example 23, dihydrochloride] :: 20 nM
Nc1nc(-c2ccccc2)c(CCN2CCN(c3ccccc3[N+](=O)[O-])CC2)s1 [Example 22, tartrate] :: 16 nM

Please find the next compound below.
Prompt line: Param item = CCCN(CCCc1sc(N)nc1C)CCc1ccccc1 [Example 10, fumarate] ; retrieve measured Ki.
Response line: 10 nM
